Where do the numbers come from? From ChEMBL document CHEMBL1156595.

- System: Candida tropicalis
- assay.overview: Antifungal activity against Candida tropicalis clinical isolate assessed as growth inhibition zone at 50 ug after 24 hrs by Kirby-Bauer agar diffusion assay
- Format: functional
- measurement.parameters: read-out: IZ
experimental.endpoint: zone of inhibition at 50 µg/disc (mm)

• CO[C@H]1C(=O)N(SC)[C@H]1c1ccccc1Br = 21
• CSN1C(=O)[C@@H](OC(C)=O)[C@H]1c1ccccc1 = 11
• CSN1C(=O)[C@H](OC(C)=O)[C@@H]1c1ccccc1 = 15
• CO[C@H]1C(=O)N(SC)[C@H]1c1ccccc1Cl = 21
• CO[C@H]1C(=O)N(SC)[C@H]1c1cccc(I)c1 = 14
• CO[C@H]1C(=O)N(SC)[C@H]1c1cc(Cl)cc(Cl)c1Cl = 22
• CO[C@H]1C(=O)N(SC)[C@H]1c1ccccc1I = 15
• CO[C@H]1C(=O)N(SC)[C@H]1/C=C/c1ccccc1 = 14
• CO[C@H]1C(=O)N(SC)[C@H]1c1ccc(Cl)cc1Cl = 23
• CO[C@H]1C(=O)N(SC)[C@H]1CCc1ccccc1 = 17
• CSN1C(=O)[C@H](OC(C)=O)[C@@H]1/C=C/c1ccccc1 = 0
• CO[C@H]1C(=O)N(SC)[C@H]1c1cc(F)c(F)cc1F = 20
• CSN1C(=O)[C@H](OC(C)=O)[C@@H]1CCc1ccccc1 = 0
• CO[C@H]1C(=O)N(SC)[C@H]1c1ccc(Cl)cc1 = 0
• CO[C@H]1C(=O)N(SC)[C@H]1c1cc(F)cc(F)c1F = 24
• CO[C@H]1C(=O)N(SC)[C@H]1c1ccccc1F = 0
• CO[C@H]1C(=O)N(SC)[C@H]1c1ccc(Br)cc1 = 20
• CSN1C(=O)[C@H](Oc2ccccc2)[C@@H]1CCc1ccccc1 = 19
• CO[C@H]1C(=O)N(SC)[C@H]1c1cccc(Br)c1 = 18
• CSN1C(=O)[C@H](Oc2ccccc2)[C@@H]1/C=C/c1ccccc1 = 0
• CCC(C)SN1C(=O)[C@H](OC)[C@@H]1c1ccccc1Cl (stereo partly specified) = 13
• CO[C@H]1C(=O)N(SC)[C@H]1c1cc(F)c(F)c(F)c1 = 19
• CO[C@H]1C(=O)N(SC)[C@H]1c1ccc(I)cc1 = 12
• CO[C@H]1C(=O)N(SC)[C@H]1c1cccc(F)c1 = 0
• CO[C@H]1C(=O)N(SC)[C@H]1c1cccc(Cl)c1 = 20
• CO[C@H]1C(=O)N(SC)[C@H]1c1ccc(F)cc1 = 0
